Recorded Hydrolysis rate inhibition, %, one value per entry.
# Target desc: thrombin (Homo sapiens, UniProt P00734)
# Assay overview: Effect of test compounds on thrombin activity: hydrolysis rate of chromogenic (Chromozim TH) or fluorogenic (BOC-Ala-Pro-Arg-AMC) substrate
# Type: biochemical
# Assay context: concentration of compound 250 mcM
# value in %; strip the unit string

As a guide, the following entries are already answered.
* CNc1ccc(S(=O)(=O)N(C)c2ccccc2)cc1NC(=O)CC[n+]1ccc(N(C)C)cc1.[Cl-] [HC-022s-IOC] | 51
* CN(c1ccccc1)S(=O)(=O)c1ccc2c(c1)nc(CC[n+]1ccc(N)cc1)n2C.[Cl-] [HC_027s_IOC] | 100
* Nc1cc[n+](CCOc2cccc(NS(=O)(=O)c3ccccc3)c2)cc1 [HC_041s_IOC] | 99
* Cc1cc(OCCC[n+]2ccc(N)cc2)cc(OS(=O)(=O)c2ccccc2Cl)c1 [HC-023s-IOC] | 100
* CNc1ccc(S(=O)(=O)N(C)c2ccccc2)cc1NC(=O)CC[n+]1ccc(N)cc1.[Cl-] [HC_028s_IOC] | 100

// switching to the query molecule
Exam item: // lookup Hydrolysis rate inhibition, % for CN(C)c1cc[n+](CCc2nc3cc(S(=O)(=O)N(C)c4ccccc4)ccc3n2C)cc1.[Cl-] [HC-021s-IOC]
Marked response: 4
